Recorded values, source PubChem BioAssay.

Protocol Summary: CREB reporter modulators under forskolin, primary screen, cell-based, PC12, CRE-LacZ reporter, forskolin-stimulated (AID 1146);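 also: PC12 cells with 6xCRE LacZ reporter stimulated by forskolin 10 µM; beta-galactosidase reporter signal reflecting CREB driven transcription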
Experimental Parameters: luminescence, 4.5 h, higher = more signal, called active from +8 up or from −8 down
Rule: z-score under -0.4 gives f, otherwise t.

Please review the entries below; each comes with its answer.
[N-]=[N+]=Nc1ccccc1C[C@]1(C(=O)NCC(O)CO)N=C(c2ccc(OCCCO)cc2)O[C@H]1c1ccccc1N=[N+]=[N-] (stereo partly drawn) | f
[N-]=[N+]=NCc1ccccc1C[C@]1(C(=O)NCC(O)CO)N=C(c2ccc(OCCCO)cc2)O[C@H]1c1ccccc1 (stereo partly drawn) | f
CCOC(=O)C=Cc1cc([N+](=O)[O-])ccc1O | f
CC(C)C(=C=CC[C@@H](O)c1ccccc1OCCO)CCO | t
CCOC(=O)C[C@H]1[C@H](OC(=O)Cc2ccc3c(c2)OCO3)[C@@H](NC(=O)c2ccc3ccccc3c2)c2cc(OCCCO)ccc2N1C(=O)c1ccccc1 | t

Enquiry: Please check the record "C#CCNC(=O)[C@H](Cc1ccccc1)NC(=O)CCC(=O)O" and state if its z-score is at or above -0.4.
Return: t

Enquiry: Check "O=C1c2ccccc2[C@](Cc2ccccc2I)(C(=O)NC2CC2)[C@H](c2ccc(CO)cc2)N1Cc1ccccc1" too.
Return: t

Enquiry: Similarly, "COC(=O)[C@@]1(Cc2ccc(F)cc2)[C@H]2c3cc(C(=O)N4CCCC4)n(Cc4ccc(C)o4)c3C[C@H]2CN1C(=O)c1ccccc1" ?
Return: f
